System: SK-MEL-28 melanoma
ASSAY NOTES: NCI tumour cell line growth inhibition, 48 h
Recorded TGI by entry
Please respond with the number in µM and leave the unit unwritten.

Worked cases, answers included:
[[record]]
molecule = "O=C(NN1C(=O)CSC1c1ccc(Cl)cc1)c1[nH]c2ccc(F)cc2c1-c1ccccc1 (configuration not stated)"
endpoint = "TGI"
endpoint_result = 10.1

[[record]]
molecule = "CC(=O)Nc1ccc(N2C(=O)/C(=C\\c3cccc(Oc4ccccc4)c3)SC2c2ccccc2)cc1 (configuration not stated)"
endpoint = "TGI"
endpoint_result = 76.1

[[record]]
molecule = "O=[N+]([O-])/C(C(Cl)=C(Cl)Cl)=C1/OCCS1"
endpoint = "TGI"
endpoint_result = 96.5

[[record]]
molecule = "Nc1nc(OCc2ccccc2)nc2[nH]ncc12"
endpoint = "TGI"
endpoint_result = 35.2

[[record]]
molecule = "Cn1cc(-c2ccc3c(c2)CCN3C(=O)Cc2cccc(C(F)(F)F)c2)c2c(N)ncnc21"
endpoint = "TGI"
endpoint_result = 21.4


Record "Oc1cc(Cl)ccc1Oc1ccc(Cl)cc1Cl" . Reported TGI: 10.4

Record O=C1CC2C(=O)N(Cc3ccccc3)C1C(S(=O)(=O)c1ccccc1)C2S(=O)(=O)c1ccccc1 (configuration not stated) . Reported TGI: 3.72

Record "CSCC[C@H]1C(=O)N=C(N)N1C(=O)OCc1ccccc1" . Reported TGI: 96.8

Record "Cc1cc(N2CCCC2)nc(N(CCCNc2ccnc3cc(Cl)ccc23)Cc2ccc3c(c2)OCO3)n1" . Reported TGI: 2.74

Record CC(CCc1ccc2c(c1)c(=N)c1ccc(N)cc1n2O)CC(C)(C)C (configuration not stated) . Reported TGI: 3.58

Record "Fc1ccc(Nc2nc(NCCNc3ccnc4cc(Cl)ccc34)nc(N3CCOCC3)n2)cc1" . Reported TGI: 3.25
